Biological target: collagenase (Homo sapiens)
Construct: endogenous in cells
Sequence (P03956 100-469): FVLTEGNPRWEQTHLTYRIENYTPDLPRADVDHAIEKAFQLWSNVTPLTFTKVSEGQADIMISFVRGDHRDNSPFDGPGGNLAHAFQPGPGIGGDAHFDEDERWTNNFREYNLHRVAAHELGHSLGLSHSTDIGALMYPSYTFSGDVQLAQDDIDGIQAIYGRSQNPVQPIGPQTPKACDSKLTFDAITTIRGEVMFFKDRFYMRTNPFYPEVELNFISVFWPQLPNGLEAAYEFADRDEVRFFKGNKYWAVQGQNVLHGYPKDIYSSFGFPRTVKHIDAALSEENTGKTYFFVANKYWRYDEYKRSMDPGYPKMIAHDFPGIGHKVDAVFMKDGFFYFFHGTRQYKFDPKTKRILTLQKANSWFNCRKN
Experiment: Inhibitory activity against collagenase (thiopeptolide synthetic substrate, absorption at 324 nm)
Conditions: collagenase from procollagenase purified from human normal skin dermal fibroblasts (HNDF), trypsin-activated; 26° C.
pIC50: −log10 of the molar value.
observed-property: pIC50

C#CCOC[C@@H](C[C@@H](COCOCC)NC(=O)c1ccc(Cl)cc1)C(=O)NO [20(3)] = 8.17

P = C#CC[C@@H](C[C@@H](CO)N(C)C(=O)c1ccc(Br)cc1)C(=O)NO [21(2)]
Q = CCOCOC[C@H](C[C@H](COC)C(=O)NO)NC(=O)c1ccc(C#N)cc1 [compound 8]
Req: I'm curious, which of these has a smaller pIC50 number: P or Q ? Indicate which entry you chose by stating its label.
Resp: Q

----------
Target: UniProtKB P08254
Sequence (P08254 100-477): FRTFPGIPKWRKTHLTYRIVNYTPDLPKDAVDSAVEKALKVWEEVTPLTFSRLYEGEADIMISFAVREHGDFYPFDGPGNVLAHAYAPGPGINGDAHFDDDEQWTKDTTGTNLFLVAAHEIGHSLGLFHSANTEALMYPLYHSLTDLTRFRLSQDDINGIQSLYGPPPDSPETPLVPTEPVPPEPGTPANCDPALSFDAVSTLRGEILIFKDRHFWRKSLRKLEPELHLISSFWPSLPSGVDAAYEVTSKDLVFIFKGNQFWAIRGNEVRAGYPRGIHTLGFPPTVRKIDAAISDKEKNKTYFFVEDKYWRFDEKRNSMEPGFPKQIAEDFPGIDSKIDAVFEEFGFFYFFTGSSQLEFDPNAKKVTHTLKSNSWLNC
Test: Inhibitory activity against stromelysin (synthetic substrate NFF-3, fluorescence)
Conditions: APMA-activated, pH 7.5, 37° C.
observed-property: IC50 (nM)

CCOCOC[C@H](C[C@H](COC)C(=O)NO)NC(=O)c1ccc(Oc2ccccc2)cc1 [8(6)] = 29
CCOCOC[C@H](C[C@H](COC)C(=O)NO)NC(=O)c1ccc(-c2ccco2)cc1 [8(7)] = 40

----------
Biological target: gelatinase A (Homo sapiens, UniProt P08253)
Construct: endogenous in cells
Sequence (P08253 110-660): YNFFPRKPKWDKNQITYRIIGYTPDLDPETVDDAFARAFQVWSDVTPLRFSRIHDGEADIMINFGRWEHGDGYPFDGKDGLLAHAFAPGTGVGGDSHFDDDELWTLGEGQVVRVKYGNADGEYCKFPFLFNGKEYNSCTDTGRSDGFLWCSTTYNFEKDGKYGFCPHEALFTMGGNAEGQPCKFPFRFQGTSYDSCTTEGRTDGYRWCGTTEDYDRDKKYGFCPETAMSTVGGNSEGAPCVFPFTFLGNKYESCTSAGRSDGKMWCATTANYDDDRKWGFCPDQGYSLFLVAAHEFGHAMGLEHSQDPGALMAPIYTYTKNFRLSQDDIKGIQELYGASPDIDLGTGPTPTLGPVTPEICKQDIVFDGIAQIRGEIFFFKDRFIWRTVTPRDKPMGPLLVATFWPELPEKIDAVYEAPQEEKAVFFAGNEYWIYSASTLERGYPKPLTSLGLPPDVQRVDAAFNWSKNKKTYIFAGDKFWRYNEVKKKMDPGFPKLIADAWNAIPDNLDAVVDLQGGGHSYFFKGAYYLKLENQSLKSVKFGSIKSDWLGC
Assay: Inhibitory activity against gelatinase A (fluorogenic synthetic substrate)
Settings: gelatinase A from progelatinase A purified from human normal skin dermal fibroblasts (HNDF), APMA-activated; 37° C.
observed-property: IC50 (nM)

a = CN(C(=O)c1ccc(Br)cc1)[C@H](CO)C[C@H](CCCc1ccccc1)C(=O)NO [16(2)]
b = CCOCOC[C@H](C[C@H](COC)C(=O)NO)NC(=O)c1ccc(Oc2ccccc2)cc1 [8(6)]
Req: I'm curious, which of these has a smaller IC50 number: a or b ? Indicate which entry you chose by stating its label.
Resp: b
(b: 1.7 nM, a: 4.2 nM)
